tested on: Huh7 cells; experiment: MTT assay, Huh7 cells; details: Huh7, compounds 7 h then compound-free media 17 h
Structures can show the parent of a compound that is named as a salt.
Entries whose TC50 DENV-2 (7 + 17 h) is below 40 µM take t; entries at or above 40 µM take f.

>>> label_value("O=C1c2c(O)ccc(O)c2C(=O)c2c(NCCNCCO)ccc(NCCNCCO)c21 [Mitoxantrone, Mitoxantrone dihydrochloride]")
"t"
>>> label_value("CCN(CC)Cc1cc(Nc2ccnc3cc(Cl)ccc23)ccc1O [Amodiaquine, Amodiaquine dihydrochloride dihydrate]")
"f"
>>> label_value("O=[N+]([O-])c1ccc2c(c1)S(=O)(=O)C=C2 [Stattic]")
"t"
>>> label_value("O=C(Nc1ccc([N+](=O)[O-])cc1Cl)c1cc(Cl)ccc1O [Niclosamide]")
"f"
>>> label_value("CC(=O)/C=C1\\C(=O)N(C)c2ccccc21 [Supercinnamaldehyde]")
"f"
>>> label_value("Cc1ccc(S(=O)(=O)N[C@@H](Cc2ccccc2)C(=O)CCl)cc1 [N-p-Tosyl-L-PCK]")
"t"
>>> label_value("O=C(c1ccc(OCCN2CCCCC2)cc1)c1c(-c2ccc(O)cc2)sc2cc(O)ccc12 [Raloxifene, Raloxifene hydrochloride]")
"t"

====

assay: in vitro; details: human, % viability (SFV screen)
Where a name gives a salt, the structure may show the parent alone.
The entries below are paired with their reported viability at 10 µM.
measured endpoint: viability at 10 µM (%)

>>> data_value("CCOC(=O)C1=C(C)NC(C)=C(C(=O)OCC)C1c1ccccc1/C=C/C(=O)OC(C)(C)C")
80.6
>>> data_value("CCN(CC)Cc1cc(Nc2ccnc3cc(Cl)ccc23)ccc1O [Amodiaquine, Amodiaquine dihydrochloride dihydrate]")
115
>>> data_value("CC[C@@]1([C@@H]2O[C@@H]([C@H]3O[C@@](O)(CO)[C@H](C)C[C@@H]3C)C[C@@H]2C)CC[C@H]([C@]2(C)CC[C@]3(C[C@H](O)[C@@H](C)[C@@H]([C@@H](C)[C@@H](OC)[C@H](C)C(=O)O)O3)O2)O1 [Monensin, Monensin sodium salt]")
108

====

The entries below are paired with their reported viability at 10 µM.
assay: in vitro; settings: human, % viability (SFV screen)
Structures can show the parent of a compound that is named as a salt.
measured endpoint: viability at 10 µM (%)

>>> data_value("O=C(Nc1ccc([N+](=O)[O-])cc1Cl)c1cc(Cl)ccc1O [Niclosamide]")
104
>>> data_value("CN1CCN(CCCN2c3ccccc3Sc3ccc(C(F)(F)F)cc32)CC1 [Trifluoperazine dihydrochloride]")
93.9
>>> data_value("CC(C)COCC(CN(Cc1ccccc1)c1ccccc1)N1CCCC1 (centres unmarked) [Bepridil, Bepridil hydrochloride]")
71.3
>>> data_value("Clc1cc(Cl)c(OCC#CI)cc1Cl")
75.4
>>> data_value("CC/C(=C(\\c1ccccc1)c1ccc(OCCN(C)C)cc1)c1ccccc1 [Tamoxifen citrate]")
61.7
>>> data_value("[H]/N=C(\\N/C(=N/[H])NCCCCCCNC(=N)NC(=N)Nc1ccc(Cl)cc1)Nc1ccc(Cl)cc1")
96.2
>>> data_value("O=C(c1ccc(OCCN2CCCCC2)cc1)c1c(-c2ccc(O)cc2)sc2cc(O)ccc12 [Raloxifene, Raloxifene hydrochloride]")
92
>>> data_value("CN[C@@H]1C[C@@H](c2ccc(Cl)c(Cl)c2)c2ccccc21 [Indatraline hydrochloride]")
76.4

====

assay: in vitro; settings: human, % viability (SFV screen)
Where a name gives a salt, the structure may show the parent alone.
measured endpoint: viability at 10 µM

>>> data_value("C=C1C(=O)O[C@H]2[C@H]1CC/C(C)=C/CC[C@@]1(C)O[C@@H]21 [Parthenolide]")
"56.8%"
>>> data_value("Nc1ccn([C@@H]2O[C@H](CO)[C@@H](O)C2(F)F)c(=O)n1 [Gemcitabine]")
"102%"
>>> data_value("Nc1ncn([C@@H]2O[C@H](CO)[C@@H](O)[C@H]2O)c(=O)n1 [5-azacytidine]")
"75.5%"
>>> data_value("O=C1c2c(O)ccc(O)c2C(=O)c2c(NCCNCCO)ccc(NCCNCCO)c21 [Mitoxantrone, Mitoxantrone dihydrochloride]")
"88.5%"

====

The entries below are paired with their reported viability at 10 µM.
experiment: in vitro; conditions: human, % viability (SFV screen)
Where a name gives a salt, the structure may show the parent alone.
measured endpoint: viability at 10 µM (%)

>>> data_value("CC[C@H]1CN2CCc3cc(OC)c(OC)cc3[C@@H]2C[C@@H]1C[C@H]1NCCc2cc(OC)c(OC)cc21 [Emetine dihydrochloride hydrate]")
104
>>> data_value("Nc1ncnc2c1ncn2[C@@H]1O[C@H](COP(=O)(O)O)[C@@H](O)[C@H]1O [Adenosine 5'-monophosphate monohydrate]")
86.8
>>> data_value("CCN(CC)CCOc1ccc(C(=C(Cl)c2ccccc2)c2ccccc2)cc1 [Clomiphene, Clomiphene citrate (Z,E)]")
97.1
>>> data_value("OC(c1cc(C(F)(F)F)nc2c(C(F)(F)F)cccc12)C1CCCCN1 (stereo not shown) [Mefloquine hydrochloride]")
72.7
>>> data_value("CN1CCN(CCCN2c3ccccc3Sc3ccc(Cl)cc32)CC1 [Prochloperazine, Prochlorperazine dimaleate]")
84
>>> data_value("O=C1NCCN1CCN1CCC(c2cn(-c3ccc(F)cc3)c3ccc(Cl)cc23)CC1 [Sertindole]")
105
>>> data_value("CNc1ccc2oc(C[C@H]3O[C@@]4(CC[C@H]3C)O[C@H]([C@H](C)C(=O)c3ccc[nH]3)[C@H](C)C[C@H]4C)nc2c1C(=O)O [Calcimycin]")
34.4

====

test system: SFV; experiment: microbe, parasite or virus in culture; format: cell-based, Semliki Forest virus; conditions: 10 µM
measured endpoint: % inhibition (SFV screen)

>>> data_value("CCSc1ccc2c(c1)N(CCCN1CCN(C)CC1)c1ccccc1S2.O=C(O)CC(O)C(=O)O.O=C(O)CC(O)C(=O)O [Thiethylperazine dimalate]")
"91.68%"
>>> data_value("Cc1ccc(S(=O)(=O)N[C@@H](Cc2ccccc2)C(=O)CCl)cc1")
"82.34%"
>>> data_value("CC(=O)/C=C1\\C(=O)N(C)c2ccccc21")
"89.06%"
>>> data_value("Nc1ncn([C@@H]2O[C@H](CO)[C@@H](O)[C@H]2O)c(=O)n1")
"101.05%"

====

tested on: SINV; test: microbe, parasite or virus in culture; assay type: cell-based, Sindbis virus; conditions: Sindbis virus, HeLa Kyoto, read-out: IC50 SINV
Where a name gives a salt, the structure may show the parent alone.
measured endpoint: IC50 (µM)

>>> data_value("CC(C)COCC(CN(Cc1ccccc1)c1ccccc1)N1CCCC1 (stereo not drawn) [Bepridil, Bepridil hydrochloride]")
14.6
>>> data_value("O=C1c2c(O)ccc(O)c2C(=O)c2c(NCCNCCO)ccc(NCCNCCO)c21 [Mitoxantrone, Mitoxantrone dihydrochloride]")
9.9
>>> data_value("CNc1ccc2oc(C[C@H]3O[C@@]4(CC[C@H]3C)O[C@H]([C@H](C)C(=O)c3ccc[nH]3)[C@H](C)C[C@H]4C)nc2c1C(=O)O")
2.1
>>> data_value("O=C(Nc1ccc([N+](=O)[O-])cc1Cl)c1cc(Cl)ccc1O [Niclosamide]")
2.8
>>> data_value("O=C(c1ccc(OCCN2CCCCC2)cc1)c1c(-c2ccc(O)cc2)sc2cc(O)ccc12 [Raloxifene, Raloxifene hydrochloride]")
30.6

====

system: ZIKV; assay: microbe, parasite or virus in culture; assay type: cell-based, Zika virus; conditions: read-out: IC50 ZIKV
pIC50: −log10 of the molar value.
The entries below are paired with their reported pIC50.
measured endpoint: pIC50

>>> data_value("Cc1ccc(S(=O)(=O)N[C@@H](Cc2ccccc2)C(=O)CCl)cc1")
4.61
>>> data_value("O=[N+]([O-])c1ccc2c(c1)S(=O)(=O)C=C2")
5.40

====

assay: in vivo; conditions: CD1, mouse, ip, 10 mg/kg
measured endpoint: Tmax (min)

>>> data_value("O=C(Nc1ccc([N+](=O)[O-])cc1Cl)c1cc(Cl)ccc1O [Niclosamide]")
15

====

system: DENV-1; assay: microbe, parasite or virus in culture; assay type: cell-based, dengue virus; conditions: read-out: IC50 DENV-1
measured endpoint: IC50 (µM)

>>> data_value("Cc1ccc(S(=O)(=O)N[C@@H](Cc2ccccc2)C(=O)CCl)cc1 [N-p-Tosyl-L-PCK]")
25.6

====

The entries below are paired with their reported pIC50.
tested on: SINV; test: microbe, parasite or virus in culture; assay type: cell-based, Sindbis virus; details: Sindbis virus, HeLa Kyoto, read-out: IC50 SINV
pIC50: −log10 of the molar value. Counter-ions that a name gives are not always drawn.
measured endpoint: pIC50

>>> data_value("C=C1C(=O)O[C@H]2[C@H]1CC/C(C)=C/CC[C@@]1(C)O[C@@H]21 [Parthenolide]")
5.49
>>> data_value("CC[C@@]1([C@@H]2O[C@@H]([C@H]3O[C@@](O)(CO)[C@H](C)C[C@@H]3C)C[C@@H]2C)CC[C@H]([C@]2(C)CC[C@]3(C[C@H](O)[C@@H](C)[C@@H]([C@@H](C)[C@@H](OC)[C@H](C)C(=O)O)O3)O2)O1 [Monensin, Monensin sodium salt]")
6.40
>>> data_value("CCN(CC)Cc1cc(Nc2ccnc3cc(Cl)ccc23)ccc1O [Amodiaquine, Amodiaquine dihydrochloride dihydrate]")
4.95

# credit: paper PMC6410080
